These data points were gathered from patent US10457654B2.

biological target: hNav1.7 (Homo sapiens (Human), UniProt Q15858); assay: Patch voltage clamp electrophysiology assay (EP), Syncropatch 384PE, CHO cells expressing Nav1.7; type: cell-based; settings: holding potential -50 mV; […] compound incubation; read-out: EP_SP hNav1.7 (Ex. 243B) IC50
Sequence (Q15858 other isoform, or with tags, fused parts or gaps): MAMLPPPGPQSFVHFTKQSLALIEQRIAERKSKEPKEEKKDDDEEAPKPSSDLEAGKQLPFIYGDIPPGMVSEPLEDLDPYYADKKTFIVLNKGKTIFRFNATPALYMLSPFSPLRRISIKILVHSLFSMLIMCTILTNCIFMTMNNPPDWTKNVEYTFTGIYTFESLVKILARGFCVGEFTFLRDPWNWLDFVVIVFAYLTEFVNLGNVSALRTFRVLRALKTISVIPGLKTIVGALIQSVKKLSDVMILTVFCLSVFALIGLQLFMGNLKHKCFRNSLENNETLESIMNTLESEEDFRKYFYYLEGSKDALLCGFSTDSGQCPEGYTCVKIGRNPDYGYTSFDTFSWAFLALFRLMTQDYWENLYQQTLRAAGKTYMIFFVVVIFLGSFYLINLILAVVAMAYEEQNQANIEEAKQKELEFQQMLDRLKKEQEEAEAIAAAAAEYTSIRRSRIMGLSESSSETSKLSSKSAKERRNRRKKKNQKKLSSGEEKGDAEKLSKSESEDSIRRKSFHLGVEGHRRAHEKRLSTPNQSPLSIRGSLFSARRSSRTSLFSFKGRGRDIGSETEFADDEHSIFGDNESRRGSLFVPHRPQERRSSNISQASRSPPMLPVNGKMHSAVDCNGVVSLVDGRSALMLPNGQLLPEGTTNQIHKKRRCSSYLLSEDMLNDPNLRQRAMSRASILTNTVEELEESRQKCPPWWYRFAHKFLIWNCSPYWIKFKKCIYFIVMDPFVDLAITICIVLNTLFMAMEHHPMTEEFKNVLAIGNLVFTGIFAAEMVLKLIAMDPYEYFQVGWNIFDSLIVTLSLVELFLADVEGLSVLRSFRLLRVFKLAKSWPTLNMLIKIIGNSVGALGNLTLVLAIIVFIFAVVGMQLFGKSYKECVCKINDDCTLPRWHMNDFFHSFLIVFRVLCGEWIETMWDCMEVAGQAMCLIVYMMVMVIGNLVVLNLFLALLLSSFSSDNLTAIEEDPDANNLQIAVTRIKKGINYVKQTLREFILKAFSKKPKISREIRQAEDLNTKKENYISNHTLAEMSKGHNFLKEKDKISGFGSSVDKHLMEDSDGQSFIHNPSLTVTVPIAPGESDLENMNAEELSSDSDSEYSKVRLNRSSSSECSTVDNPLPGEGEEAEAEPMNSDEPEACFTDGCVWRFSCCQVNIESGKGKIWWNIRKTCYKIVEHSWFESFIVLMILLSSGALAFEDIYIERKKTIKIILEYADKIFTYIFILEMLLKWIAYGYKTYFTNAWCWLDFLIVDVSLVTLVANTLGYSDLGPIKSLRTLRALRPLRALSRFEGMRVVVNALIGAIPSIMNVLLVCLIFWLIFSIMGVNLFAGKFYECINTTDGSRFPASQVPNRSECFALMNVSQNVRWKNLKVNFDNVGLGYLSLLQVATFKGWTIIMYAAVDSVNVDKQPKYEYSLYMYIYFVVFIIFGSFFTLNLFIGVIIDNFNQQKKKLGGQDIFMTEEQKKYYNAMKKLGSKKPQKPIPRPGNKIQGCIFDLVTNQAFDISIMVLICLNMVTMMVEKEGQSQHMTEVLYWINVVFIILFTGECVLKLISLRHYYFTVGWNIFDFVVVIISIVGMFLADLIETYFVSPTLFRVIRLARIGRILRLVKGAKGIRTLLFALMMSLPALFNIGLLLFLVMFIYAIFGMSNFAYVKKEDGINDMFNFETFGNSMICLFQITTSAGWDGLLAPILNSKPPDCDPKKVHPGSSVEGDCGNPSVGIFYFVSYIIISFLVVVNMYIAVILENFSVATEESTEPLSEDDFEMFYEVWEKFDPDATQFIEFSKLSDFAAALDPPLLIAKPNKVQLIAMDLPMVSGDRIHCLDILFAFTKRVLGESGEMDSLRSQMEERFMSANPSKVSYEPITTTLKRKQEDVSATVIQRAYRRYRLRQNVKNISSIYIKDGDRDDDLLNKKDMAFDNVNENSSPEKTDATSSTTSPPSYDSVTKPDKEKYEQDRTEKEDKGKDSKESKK
pIC50: −log10 of the molar value.
Param threshold (8) applies to pIC50; output t when value >= threshold, f when value < threshold.

Request: # check: pIC50 of CN(C)[C@H]1C[C@@H](c2ccc(C(F)(F)F)cc2)CC[C@@H]1Nc1cc(F)c(S(=O)(=O)Nc2ccncn2)cc1Cl [Example 224] is greater than or equal to 8
Result: t

Request: # check: pIC50 of O=S(=O)(Nc1cccc(F)n1)c1cc(Cl)c(N[C@H]2CCCC[C@@H]2N2C[C@@H]3[C@@H](CO)[C@@H]3C2)cc1F [Example 185] is greater than or equal to 8
Result: f

Request: # check: pIC50 of CN(C)[C@H]1C[C@@H](F)CC[C@@H]1Nc1cc(F)c(S(=O)(=O)Nc2nccs2)cc1Cl [Example 192] is greater than or equal to 8
Result: f

Request: # check: pIC50 of O=S(=O)(Nc1nccs1)c1cc(Cl)c(N[C@H]2CCCC[C@@H]2N2CCCC2CO)cc1F (stereo in doubt) [Example 133] is greater than or equal to 8
Result: t

###

molecular target: hNav1.7 (Homo sapiens (Human), UniProt Q15858); test: Tritiated compound binding to membranes from cells expressing hNav1.7 and the β1 subunit, modified protocol (LBA, Ex. 243B); conditions: 300 pM [3H]compound, room temperature, read-out: Nav1.7 LBA (Ex. 243B) IC50
Sequence (Q15858 whole entry, looked up): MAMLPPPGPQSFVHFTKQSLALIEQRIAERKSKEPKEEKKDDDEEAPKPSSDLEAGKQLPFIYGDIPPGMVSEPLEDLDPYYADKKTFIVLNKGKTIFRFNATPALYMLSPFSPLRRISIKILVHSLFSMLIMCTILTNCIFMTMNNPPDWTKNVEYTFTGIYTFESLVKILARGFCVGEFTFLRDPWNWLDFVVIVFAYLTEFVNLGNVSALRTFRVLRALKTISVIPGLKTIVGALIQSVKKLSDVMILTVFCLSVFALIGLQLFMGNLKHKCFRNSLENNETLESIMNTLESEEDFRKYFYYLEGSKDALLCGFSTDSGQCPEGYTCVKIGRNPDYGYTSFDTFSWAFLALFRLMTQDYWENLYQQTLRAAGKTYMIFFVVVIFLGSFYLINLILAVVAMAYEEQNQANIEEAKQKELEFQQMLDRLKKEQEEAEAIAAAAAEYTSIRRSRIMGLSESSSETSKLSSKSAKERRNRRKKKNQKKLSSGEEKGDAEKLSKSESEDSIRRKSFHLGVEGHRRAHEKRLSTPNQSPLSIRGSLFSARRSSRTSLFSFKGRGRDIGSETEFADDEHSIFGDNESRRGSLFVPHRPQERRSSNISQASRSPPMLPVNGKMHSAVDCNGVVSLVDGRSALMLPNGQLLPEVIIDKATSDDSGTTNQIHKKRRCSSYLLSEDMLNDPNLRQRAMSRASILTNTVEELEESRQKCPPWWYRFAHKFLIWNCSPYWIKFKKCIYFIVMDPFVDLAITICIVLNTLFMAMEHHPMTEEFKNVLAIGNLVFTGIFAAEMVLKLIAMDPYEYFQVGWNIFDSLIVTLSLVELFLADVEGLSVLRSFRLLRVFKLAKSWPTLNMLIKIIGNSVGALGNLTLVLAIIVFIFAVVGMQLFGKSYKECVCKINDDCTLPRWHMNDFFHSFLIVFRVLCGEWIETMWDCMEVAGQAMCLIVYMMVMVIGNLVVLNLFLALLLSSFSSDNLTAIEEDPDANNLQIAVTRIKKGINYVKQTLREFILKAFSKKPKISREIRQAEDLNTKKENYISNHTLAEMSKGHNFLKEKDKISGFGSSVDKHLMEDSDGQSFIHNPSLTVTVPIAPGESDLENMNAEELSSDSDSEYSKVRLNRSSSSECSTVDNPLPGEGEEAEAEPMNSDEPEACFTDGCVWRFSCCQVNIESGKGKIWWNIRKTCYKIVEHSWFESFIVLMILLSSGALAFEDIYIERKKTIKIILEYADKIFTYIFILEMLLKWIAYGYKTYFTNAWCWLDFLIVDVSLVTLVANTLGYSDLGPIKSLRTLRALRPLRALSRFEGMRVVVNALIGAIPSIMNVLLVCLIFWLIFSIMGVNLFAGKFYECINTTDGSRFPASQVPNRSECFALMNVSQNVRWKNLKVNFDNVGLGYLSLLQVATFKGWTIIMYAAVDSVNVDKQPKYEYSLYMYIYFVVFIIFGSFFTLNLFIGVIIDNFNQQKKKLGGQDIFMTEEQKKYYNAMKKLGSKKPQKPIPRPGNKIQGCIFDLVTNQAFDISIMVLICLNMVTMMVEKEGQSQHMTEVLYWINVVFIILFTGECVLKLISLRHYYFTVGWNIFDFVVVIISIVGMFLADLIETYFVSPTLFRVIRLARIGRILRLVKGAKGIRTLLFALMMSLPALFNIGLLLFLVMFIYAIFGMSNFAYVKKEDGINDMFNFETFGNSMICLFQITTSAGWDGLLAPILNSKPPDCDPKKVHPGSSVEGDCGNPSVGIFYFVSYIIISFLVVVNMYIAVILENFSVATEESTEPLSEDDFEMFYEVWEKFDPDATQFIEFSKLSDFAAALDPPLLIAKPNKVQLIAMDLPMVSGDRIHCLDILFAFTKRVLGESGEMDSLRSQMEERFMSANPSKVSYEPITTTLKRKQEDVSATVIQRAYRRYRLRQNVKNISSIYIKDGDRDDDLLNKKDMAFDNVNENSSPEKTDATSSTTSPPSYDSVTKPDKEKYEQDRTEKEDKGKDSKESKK
Sequence (Q07699 whole entry partner, looked up): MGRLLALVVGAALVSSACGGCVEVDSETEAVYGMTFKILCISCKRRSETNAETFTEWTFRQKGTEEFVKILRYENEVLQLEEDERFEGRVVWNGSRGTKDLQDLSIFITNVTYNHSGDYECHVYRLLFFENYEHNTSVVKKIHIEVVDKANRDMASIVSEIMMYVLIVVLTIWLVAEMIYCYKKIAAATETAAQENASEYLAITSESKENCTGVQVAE
pIC50: −log10 of the molar value. Counter-ions that a name gives are not always drawn.
Param threshold (7) applies to pIC50; output label 1 when value >= threshold, label 0 when value < threshold.

Request: # check: pIC50 of CN(CCC#N)[C@H]1CCCC[C@@H]1Nc1cc(F)c(S(=O)(=O)Nc2nccs2)cc1Cl [Example 125] is greater than or equal to 7
Result: label 0

Request: # check: pIC50 of CN([C@H]1C[C@H](O)C1)[C@H]1CCCC[C@@H]1Nc1cc(F)c(S(=O)(=O)Nc2nccs2)cc1Cl [Example 157, formate] is greater than or equal to 7
Result: label 0

Request: # check: pIC50 of CN(C(=O)C(C)(C)N(C)C)[C@H]1CCCC[C@@H]1Nc1cc(F)c(S(=O)(=O)Nc2nccs2)cc1Cl [Example 198] is greater than or equal to 7
Result: label 0

Request: # check: pIC50 of CN(C)[C@@H]1CC2C(C[C@H]1Nc1cc(F)c(S(=O)(=O)Nc3nccs3)cc1Cl)C2(F)F (stereo in doubt) [Example 210] is greater than or equal to 7
Result: label 0

Request: # check: pIC50 of CN(C)[C@@H]1C[C@H]2[C@@H](C[C@H]1Nc1cc(F)c(S(=O)(=O)Nc3nccs3)cc1Cl)C2(Cl)Cl [Example 197, formate] is greater than or equal to 7
Result: label 1

Request: # check: pIC50 of CN(C1CNC1)[C@H]1CCCC[C@@H]1Oc1cc(F)c(S(=O)(=O)Nc2nccs2)cc1Cl [Example 66, formate] is greater than or equal to 7
Result: label 1

Request: # check: pIC50 of CN(C)[C@H]1C[C@@H](c2cccc(OC(F)(F)F)c2)CC[C@@H]1Nc1cc(F)c(S(=O)(=O)Nc2ccncn2)cc1Cl [Example 225] is greater than or equal to 7
Result: label 1

Request: # check: pIC50 of CN(CCO)[C@H]1C[C@@H](C(F)(F)F)CC[C@@H]1Nc1cc(F)c(S(=O)(=O)Nc2cccc(F)n2)cc1Cl [Example 158, formate] is greater than or equal to 7
Result: label 1

Request: # check: pIC50 of CN(C)[C@H]1C[C@@H](c2cccc(C(F)(F)F)c2)CC[C@@H]1Oc1cc(F)c(S(=O)(=O)Nc2ccncn2)cc1Cl [Example 238] is greater than or equal to 7
Result: label 1

Request: # check: pIC50 of O=S(=O)(Nc1nccs1)c1cc(Cl)c(N[C@H]2CCCC[C@@H]2N2CCC[C@H](O)C2)cc1F [Example 153] is greater than or equal to 7
Result: label 1
